Data credit: PubChem BioAssay (NCI)

Test system: UO-31 renal
Test: NCI-60 one-dose screen, 48 h
Details: 10 µM unless noted
The panel holds about 83,000 compounds, 20% with a hit somewhere; the sample as a whole holds those more often. The source made the active and inactive calls. The calls were made as follows: active = growth percent below 10; inactive = the rest.
Possible outcomes: active, inactive

[[record]]
compound = "C=C1C(=O)O[C@H]2[C@H]1CC/C(COC(=O)OC/C1=C/CC[C@@]3(C)O[C@H]3[C@H]3OC(=O)[C@@H](CN(C)C)[C@@H]3CC1)=C\\CC[C@@]1(C)O[C@@H]21"
discrete_label = "active"

[[record]]
compound = "C=C(C)[C@@H]1C/C=C(\\COC(=O)[C@H](OC(C)=O)C(NC(=O)c2ccccc2)c2ccccc2)CC[C@H]2O[C@]2(C)CC/C=C(\\C)CC1 (stereo partly drawn)"
discrete_label = "inactive"

[[record]]
compound = "O=c1c2ccccc2[nH]n1Cc1ccc2c(c1)OCO2"
discrete_label = "inactive"

[[record]]
compound = "Cc1ccc(-c2nc3c(N=Nc4ccc(S(N)(=O)=O)cc4)c(N)nn3c(N)c2C#N)cc1"
discrete_label = "inactive"

[[record]]
compound = "CC1(C)N=C(N)N=C(N)N1c1ccc(OCC(=O)Nc2ccccc2)c(Cl)c1"
discrete_label = "inactive"

[[record]]
compound = "COc1cc(Cn2cc3c(c2)-c2onc(CO)c2CC3)cc(OC)c1OC"
discrete_label = "inactive"

[[record]]
compound = "COc1cc(C(=O)N2CCN(C(=O)c3cc(OC)c(OCc4ccccc4)cc3N)CC2)c(N)cc1OCc1ccccc1"
discrete_label = "inactive"

[[record]]
compound = "COc1ccc(OC)c(NCC(=O)n2nc(/C=C\\c3ccc(O)c(OC)c3)cc2/C=C\\c2ccc(O)c(OC)c2)c1"
discrete_label = "active"

